Data provenance: patent US20070244048A1

tested-on: T1, mouse NMUR2 (mouse, UniProt Q8BZ39 1-395)
T1 construct: whole, on cells; also called mouse R2
experiment-notes: 125I-hNMU-25 displacement, cell membranes
No end group written: not given here.
property-measured: pIC50
Give bare numbers, as −log10 of the molar value.

// sample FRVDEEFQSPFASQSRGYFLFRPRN-NH2 (also called hNMU-25; native hNMU) [human NMU-25] , its pIC50 was 9.70
